assay: everolimus arterial tissue concentration in and next to the stented vessel; format: in vivo, swine; details: swine, 1070 μg, swine; 8.0×28 mm stent, group 2, 1070 μg Lot #2; 56 days; read-out: drug concentration in tissue proximal to stented region
metric: concentration at 56 days (ng/g)
Just the number please, in ng/g, no unit attached.

What does the record list as concentration at 56 days for CO[C@H]1C[C@@H]2CC[C@@H](C)[C@@](O)(O2)C(=O)C(=O)N2CCCC[C@H]2C(=O)O[C@H]([C@H](C)C[C@@H]2CC[C@@H](OCCO)[C@H](OC)C2)CC(=O)[C@H](C)/C=C(\C)[C@@H](O)[C@@H](OC)C(=O)[C@H](C)C[C@H](C)/C=C/C=C/C=C/1C [everolimus, 40-O-(2-hydroxyethyl)-rapamycin] ?
10

====

experiment: everolimus arterial tissue concentration in and next to the stented vessel; type: in vivo, swine; conditions: swine, arterial tissue, unstented segment distal to stented region, 1070 μg, swine; 8.0×28 mm stent, group 2, 1070 μg Lot #2; 3 days; read-out: drug concentration in tissue distal to stented region
metric: concentration at 3 days (ng/g)
Just the number please, in ng/g, no unit attached.

What does the record list as concentration at 3 days for CO[C@H]1C[C@@H]2CC[C@@H](C)[C@@](O)(O2)C(=O)C(=O)N2CCCC[C@H]2C(=O)O[C@H]([C@H](C)C[C@@H]2CC[C@@H](OCCO)[C@H](OC)C2)CC(=O)[C@H](C)/C=C(\C)[C@@H](O)[C@@H](OC)C(=O)[C@H](C)C[C@H](C)/C=C/C=C/C=C/1C [everolimus, 40-O-(2-hydroxyethyl)-rapamycin] ?
1550

====

test: everolimus arterial tissue concentration in and next to the stented vessel; type: in vivo, swine; settings: swine, arterial tissue, stented region, 3209 μg, swine; 8.0×28 mm stent, group 3, 3209 μg; 14 days; read-out: drug concentration in tissue of stented region
metric: concentration at 14 days
Answer with the figure and its unit, nothing else.

What does the record list as concentration at 14 days for CO[C@H]1C[C@@H]2CC[C@@H](C)[C@@](O)(O2)C(=O)C(=O)N2CCCC[C@H]2C(=O)O[C@H]([C@H](C)C[C@@H]2CC[C@@H](OCCO)[C@H](OC)C2)CC(=O)[C@H](C)/C=C(\C)[C@@H](O)[C@@H](OC)C(=O)[C@H](C)C[C@H](C)/C=C/C=C/C=C/1C [everolimus, 40-O-(2-hydroxyethyl)-rapamycin] ?
16500 ng/g

====

assay: everolimus arterial tissue concentration in and next to the stented vessel; format: in vivo, swine; conditions: swine, other: drug-eluting stent implanted in iliofemoral arteries, 1070 μg, swine; 10.0×28 mm stent, 1070 μg; 3 days; read-out: drug concentration in tissue distal to stented region
metric: concentration at 3 days (ng/g)
Just the number please, in ng/g, no unit attached.

What does the record list as concentration at 3 days for CO[C@H]1C[C@@H]2CC[C@@H](C)[C@@](O)(O2)C(=O)C(=O)N2CCCC[C@H]2C(=O)O[C@H]([C@H](C)C[C@@H]2CC[C@@H](OCCO)[C@H](OC)C2)CC(=O)[C@H](C)/C=C(\C)[C@@H](O)[C@@H](OC)C(=O)[C@H](C)C[C@H](C)/C=C/C=C/C=C/1C [everolimus, 40-O-(2-hydroxyethyl)-rapamycin] ?
278
